Sourced from the supplement of paper PMC11061612

// reported Bliss excess for each item listed
tested on: SHP-77 (Small Cell Lung Carcinoma); assay: Bliss excess, mean over the matrix (fraction); higher = more synergy
A bare number is all that is needed in reply.

Study these solved cases before continuing.
molecule: COc1nnc2ccc(N3CCC(c4ccc(OCCN5CCN(C)C(=O)[C@H]5C)cc4)CC3)nn12 [AZD5153] + C=CCn1c(=O)c2cnc(Nc3ccc(N4CCN(C)CC4)cc3)nc2n1-c1cccc(C(C)(C)O)n1 [AZD1775] (first compound max 1 µM, partner max 1 µM)
result.value: 0.0194
//
molecule: CCN(CCO)CCCOc1ccc2c(Nc3cc(CC(=O)Nc4cccc(F)c4)[nH]n3)ncnc2c1 [AZD2811] + C=CCn1c(=O)c2cnc(Nc3ccc(N4CCN(C)CC4)cc3)nc2n1-c1cccc(C(C)(C)O)n1 [AZD1775] (first compound max 1 µM, partner max 1 µM)
result.value: 0.0241
//
molecule: CCc1c2c(nc3ccc(O)cc13)-c1cc3c(c(=O)n1C2)COC(=O)[C@]3(O)CC [SN-38] + O=C(c1cc(Cc2n[nH]c(=O)c3ccccc23)ccc1F)N1CCN(C(=O)C2CC2)CC1 [Olaparib] (first compound max 0.3 µM, 7x7, partner max 10 µM)
result.value: 0.0235

Now for a further molecule.
Entry Cc1cc2ncnn2cc1Nc1ncc2c(n1)n(C1CCOCC1)c(=O)n2C [AZD7648] + C=CCn1c(=O)c2cnc(Nc3ccc(N4CCN(C)CC4)cc3)nc2n1-c1cccc(C(C)(C)O)n1 [AZD1775] (first compound max 10 µM, partner max 1 µM) ; Bliss excess = -0.0798

---

tested on: NCI-H2342 (Lung Adenocarcinoma); assay: Bliss excess, mean over the matrix (fraction); higher = more synergy
endpoint.name: Bliss excess
A bare number is all that is needed in reply.

Study these solved cases before continuing.
compound: CC1(C)CCC(CN2CCN(c3ccc(C(=O)NS(=O)(=O)c4ccc(NCC5CCOCC5)c([N+](=O)[O-])c4)c(Oc4cnc5[nH]ccc5c4)c3)CC2)=C(c2ccc(Cl)cc2)C1 [Venetoclax] + C[C@@H](Nc1cc(F)cc(F)c1)c1cc(C(=O)N(C)C)cc2c(=O)cc(N3CCOCC3)oc12 [AZD8186] (first compound max 1 µM, 7x7, partner max 3 µM)
endpoint.name: Bliss excess
result.value: -0.0643
--
compound: Cc1c2c(nn1C)CSCc1cc(n(C)n1)CSc1cc(c3ccccc3c1)OCCCc1c(C(=O)O)n(C)c3c-2c(Cl)ccc13 [AZD5991] + C[C@@H]1COCCN1C2=NC(=NC(=C2)C3(CC3)[S@](=N)(=O)C)C4=C5C=CNC5=NC=C4 [AZD6738] (first compound max 1 µM, 7x7, partner max 10 µM)
endpoint.name: Bliss excess
result.value: 0.0291
--
compound: C=CCn1c(=O)c2cnc(Nc3ccc(N4CCN(C)CC4)cc3)nc2n1-c1cccc(C(C)(C)O)n1 [AZD1775] + C[C@@H]1COCCN1C2=NC(=NC(=C2)C3(CC3)[S@](=N)(=O)C)C4=C5C=CNC5=NC=C4 [AZD6738] (first compound max 1 µM, partner max 10 µM)
endpoint.name: Bliss excess
result.value: -0.0687
--
compound: COc1nnc2ccc(N3CCC(c4ccc(OCCN5CCN(C)C(=O)[C@H]5C)cc4)CC3)nn12 [AZD5153] + Cn1cnc2c(F)c(Nc3ccc(Br)cc3Cl)c(C(=O)NOCCO)cc21 [Selumetinib] (first compound max 1 µM, 7x7, partner max 10 µM)
endpoint.name: Bliss excess
result.value: 0.0267
--
compound: CN(CCO)CC[C@H](CSc1ccccc1)Nc1ccc(S(=O)(=O)NC(=O)c2ccc(N3CCC([C@@H](O)c4ccccc4-c4ccc(Cl)cc4)CC3)cc2)cc1S(=O)(=O)C(F)(F)F [AZD4320] + CC(=O)O[C@H]1C(=O)[C@@]2(C)[C@H]([C@H](OC(=O)c3ccccc3)[C@]3(O)C[C@H](OC(=O)[C@H](O)[C@@H](NC(=O)c4ccccc4)c4ccccc4)C(C)=C1C3(C)C)[C@]1(OC(C)=O)CO[C@@H]1C[C@@H]2O [Paclitaxel] (first compound max 1 µM, 7x7, partner max 3 µM)
endpoint.name: Bliss excess
result.value: 0.0455
--
compound: CN(C)CCCOc1ccc(-c2ccc3ncc4c(c3c2)n(C2CCOCC2)c(=O)n4C)cn1 [AZD0156] + C[C@@H]1COCCN1C2=NC(=NC(=C2)C3(CC3)[S@](=N)(=O)C)C4=C5C=CNC5=NC=C4 [AZD6738] (first compound max 1 µM, 7x7, partner max 10 µM)
endpoint.name: Bliss excess
result.value: -0.0487

Now for a further compound.
Entry Cc1c2c(nn1C)CSCc1cc(n(C)n1)CSc1cc(c3ccccc3c1)OCCCc1c(C(=O)O)n(C)c3c-2c(Cl)ccc13 [AZD5991] + C[C@@H](Nc1cc(F)cc(F)c1)c1cc(C(=O)N(C)C)cc2c(=O)cc(N3CCOCC3)oc12 [AZD8186] (first compound max 1 µM, 7x7, partner max 3 µM) ; Bliss excess = -0.0027

---

tested on: OVMIU (Ovarian Carcinoma); assay: combination Emax (second highest fraction inhibited in the dose matrix, 72 h); higher = more inhibition; extreme values may be limits of the assay
// reported combination Emax for each item listed
A bare number is all that is needed in reply.

compound: COc1cccc(OCCCN)c1-c1cc(Nc2cnc(C#N)cn2)n[nH]1 [Prexasertib] + C=CCn1c(=O)c2cnc(Nc3ccc(N4CCN(C)CC4)cc3)nc2n1-c1cccc(C(C)(C)O)n1 [AZD1775] (first compound max 1 µM, partner max 1 µM)
combination Emax: 0.814
//
compound: COc1nnc2ccc(N3CCC(c4ccc(OCCN5CCN(C)C(=O)[C@H]5C)cc4)CC3)nn12 [AZD5153] + C=CCn1c(=O)c2cnc(Nc3ccc(N4CCN(C)CC4)cc3)nc2n1-c1cccc(C(C)(C)O)n1 [AZD1775] (first compound max 1 µM, partner max 1 µM)
combination Emax: 0.86
//
compound: CS(=O)(=O)CCNCc1ccc(-c2ccc3ncnc(Nc4ccc(OCc5cccc(F)c5)c(Cl)c4)c3c2)o1 [Lapatinib] + NC1(c2ccc(-c3nc4ccn5c(=O)[nH]nc5c4cc3-c3ccccc3)cc2)CCC1 [MK-2206] (first compound max 10 µM, 7x7, partner max 10 µM)
combination Emax: 0.891

Entry COc1nnc2ccc(N3CCC(c4ccc(OCCN5CCN(C)C(=O)[C@H]5C)cc4)CC3)nn12 [AZD5153] + CC1(C)CCC(CN2CCN(c3ccc(C(=O)NS(=O)(=O)c4ccc(NCC5CCOCC5)c([N+](=O)[O-])c4)c(Oc4cnc5[nH]ccc5c4)c3)CC2)=C(c2ccc(Cl)cc2)C1 [Venetoclax] (first compound max 1 µM, 7x7, partner max 1 µM) ; combination Emax = 0.666

Entry CN(CCO)CC[C@H](CSc1ccccc1)Nc1ccc(S(=O)(=O)NC(=O)c2ccc(N3CCC([C@@H](O)c4ccccc4-c4ccc(Cl)cc4)CC3)cc2)cc1S(=O)(=O)C(F)(F)F [AZD4320] + Cn1cnc2c(F)c(Nc3ccc(Br)cc3Cl)c(C(=O)NOCCO)cc21 [Selumetinib] (first compound max 1 µM, 7x7, partner max 3 µM) ; combination Emax = 0.739

Entry CC(=O)Nc1cccc(-n2c(=O)n(C3CC3)c(=O)c3c(Nc4ccc(I)cc4F)n(C)c(=O)c(C)c32)c1 [Trametinib] + Cc1nc(-c2cn3c(n2)-c2ccc(-c4cnn(C(C)(C)C(N)=O)c4)cc2OCC3)n(C(C)C)n1 [Taselisib] (first compound max 1 µM, 7x7, partner max 10 µM) ; combination Emax = 0.973

Entry COc1cccc(OCCCN)c1-c1cc(Nc2cnc(C#N)cn2)n[nH]1 [Prexasertib] + C[C@@H]1COCCN1C2=NC(=NC(=C2)C3(CC3)[S@](=N)(=O)C)C4=C5C=CNC5=NC=C4 [AZD6738] (first compound max 1 µM, 7x7, partner max 10 µM) ; combination Emax = 0.596

Entry CC(=O)c1c(C)c2cnc(Nc3ccc(N4CCNCC4)cn3)nc2n(C2CCCC2)c1=O [Palbociclib] + Cc1c2c(nn1C)CSCc1cc(n(C)n1)CSc1cc(c3ccccc3c1)OCCCc1c(C(=O)O)n(C)c3c-2c(Cl)ccc13 [AZD5991] (first compound max 10 µM, 7x7, partner max 1 µM) ; combination Emax = 0.27

Entry COc1cccc(OCCCN)c1-c1cc(Nc2cnc(C#N)cn2)n[nH]1 [Prexasertib] + O=C(c1cc(Cc2n[nH]c(=O)c3ccccc23)ccc1F)N1CCN(C(=O)C2CC2)CC1 [Olaparib] (first compound max 1 µM, 7x7, partner max 10 µM) ; combination Emax = 0.592

---

tested on: RKN (Other Solid Carcinomas); test: combination Emax (second highest fraction inhibited in the dose matrix, 72 h); higher = more inhibition; extreme values may be limits of the assay
Kind request: treat 0.2 as inclusive, so combination Emax at 0.2 or higher is true, anything lower is false.

compound: CN(CCO)CC[C@H](CSc1ccccc1)Nc1ccc(S(=O)(=O)NC(=O)c2ccc(N3CCC([C@@H](O)c4ccccc4-c4ccc(Cl)cc4)CC3)cc2)cc1S(=O)(=O)C(F)(F)F [AZD4320] + C[C@@H]1COCCN1C2=NC(=NC(=C2)C3(CC3)[S@](=N)(=O)C)C4=C5C=CNC5=NC=C4 [AZD6738] (first compound max 1 µM, 7x7, partner max 10 µM)
test.target: RKN (Other Solid Carcinomas)
category: true
--
compound: COc1cc2ncnc(Nc3ccc(F)c(Cl)c3)c2cc1OCCCN1CCOCC1 [Gefitinib] + CC(C)n1c(=O)n(C)c2cnc3cc(F)c(-c4ccc(OCCCN5CCCCC5)nc4)cc3c21 [AZD1390] (first compound max 10 µM, 7x7, partner max 0.3 µM)
test.target: RKN (Other Solid Carcinomas)
category: false
--
compound: CC1(C)CCC(CN2CCN(c3ccc(C(=O)NS(=O)(=O)c4ccc(NCC5CCOCC5)c([N+](=O)[O-])c4)c(Oc4cnc5[nH]ccc5c4)c3)CC2)=C(c2ccc(Cl)cc2)C1 [Venetoclax] + Cc1cc2ncnn2cc1Nc1ncc2c(n1)n(C1CCOCC1)c(=O)n2C [AZD7648] (first compound max 1 µM, 7x7, partner max 10 µM)
test.target: RKN (Other Solid Carcinomas)
category: false
--
compound: C[C@@H]1COCCN1c1cc(C2([S@](C)(=N)=O)CC2)nc(-c2ccnc3[nH]ccc23)n1 [AZD6738] + O=C(c1cc(Cc2n[nH]c(=O)c3ccccc23)ccc1F)N1CCN(C(=O)C2CC2)CC1 [Olaparib] (first compound max 10 µM, 7x7, partner max 10 µM)
test.target: RKN (Other Solid Carcinomas)
category: true
--
compound: C[C@@H](c1ccc2nccn2c1)n1nnc2ncc(-c3cnn(C)c3)nc21 [Savolitinib] + Cc1c2c(nn1C)CSCc1cc(n(C)n1)CSc1cc(c3ccccc3c1)OCCCc1c(C(=O)O)n(C)c3c-2c(Cl)ccc13 [AZD5991] (first compound max 1 µM, 7x7, partner max 1 µM)
test.target: RKN (Other Solid Carcinomas)
category: false
--
compound: Cc1cc2ncnn2cc1Nc1ncc2c(n1)n(C1CCOCC1)c(=O)n2C [AZD7648] + CN(C)CCCOc1ccc(-c2ccc3ncc4c(c3c2)n(C2CCOCC2)c(=O)n4C)cn1 [AZD0156] (first compound max 10 µM, 7x7, partner max 1 µM)
test.target: RKN (Other Solid Carcinomas)
category: false

Prompt line: Would you say Cn1cnc2c(F)c(Nc3ccc(Br)cc3Cl)c(C(=O)NOCCO)cc21 [Selumetinib] + CCN(CCO)CCCOc1ccc2c(Nc3cc(CC(=O)Nc4cccc(F)c4)[nH]n3)ncnc2c1 [AZD2811] (first compound max 10 µM, 7x7, partner max 1 µM) shows combination Emax at minimum 0.2?
Response line: true
